Recorded measurements of inhibition at 50 µM, one per entry
Biological target: h-P2X4 (Homo sapiens, UniProt Q99571)
Sequence (Q99571 1-388): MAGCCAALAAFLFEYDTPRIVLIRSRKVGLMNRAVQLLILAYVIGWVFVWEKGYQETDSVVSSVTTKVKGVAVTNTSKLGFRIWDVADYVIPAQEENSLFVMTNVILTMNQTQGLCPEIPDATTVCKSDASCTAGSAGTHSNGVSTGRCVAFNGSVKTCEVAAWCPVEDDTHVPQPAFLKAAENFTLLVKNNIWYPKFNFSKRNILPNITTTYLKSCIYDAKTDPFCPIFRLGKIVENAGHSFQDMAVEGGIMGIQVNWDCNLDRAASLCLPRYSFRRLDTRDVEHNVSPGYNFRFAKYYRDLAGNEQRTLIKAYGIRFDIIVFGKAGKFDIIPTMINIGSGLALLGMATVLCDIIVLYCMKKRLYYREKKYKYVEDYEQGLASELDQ
Assay: Ca2+ flux assay h-P2X4
Conditions: read-out: h-P2X4 % Inhibition

{"structure-as-smiles": "Cc1cc(Br)ccc1NC(=S)NC(=O)C12CC3CC(CC(C3)C1)C2", "inhibition at 50 µM / %": 34.9}
{"structure-as-smiles": "O=C(NC(=S)Nc1ccc(O)cc1)C12CC3CC(CC(C3)C1)C2", "inhibition at 50 µM / %": 32.4}
{"structure-as-smiles": "O=C(NC(=S)Nc1cccc(O)c1)C12CC3CC(CC(C3)C1)C2", "inhibition at 50 µM / %": 36.7}

* * *

Recorded measurements of cytotoxicity at 24 h, 50 µM, one per entry
experiment: MTT cytotoxicity assay, human 1321N1 astrocytoma cell line; type: cell-based; conditions: human, 1321N1 astrocytoma cells, final concentration of 50 μM
experimental-endpoint: cytotoxicity at 24 h, 50 µM (%)

{"compound": "O=C(NC(=S)Nc1cc(Br)c(O)c(C(F)(F)F)c1)C12CC3CC(CC(C3)C1)C2 [Ie]", "output-unit": "%", "recorded-result": 5.37}
{"compound": "Cc1ccc(NC(=S)NC(=O)C23CC4CC(CC(C4)C2)C3)c(Br)c1 [Im]", "output-unit": "%", "recorded-result": 7.29}
{"compound": "O=C(NC(=S)Nc1cccc2cccnc12)C12CC3CC(CC(C3)C1)C2 [Io]", "output-unit": "%", "recorded-result": 9.12}

* * *

experiment: MTT cytotoxicity assay, HEK-293 cell line; format: cell-based; conditions: human, HEK-293 cells, final concentration of 50 μM
experimental-endpoint: cytotoxicity at 24 h, 50 µM (%)

{"molecule": "NS(=O)(=O)c1cccc(NC(=S)NC(=O)C23CC4CC(CC(C4)C2)C3)c1 [Ig]", "experimental-endpoint": "cytotoxicity at 24 h, 50 µM", "recorded-result": 3.77}
{"molecule": "Cc1cc(Br)ccc1NC(=S)NC(=O)C12CC3CC(CC(C3)C1)C2 [In]", "experimental-endpoint": "cytotoxicity at 24 h, 50 µM", "recorded-result": 14}
{"molecule": "O=C(NC(=S)Nc1cccc(O)c1)C12CC3CC(CC(C3)C1)C2 [Ib]", "experimental-endpoint": "cytotoxicity at 24 h, 50 µM", "recorded-result": 6.95}
{"molecule": "O=C(NC(=S)Nc1cc(Br)c(O)c(C(F)(F)F)c1)C12CC3CC(CC(C3)C1)C2 [Ie]", "experimental-endpoint": "cytotoxicity at 24 h, 50 µM", "recorded-result": 6.85}
{"molecule": "O=C(NC(=S)Nc1ccccc1O)C12CC3CC(CC(C3)C1)C2 [Ia]", "experimental-endpoint": "cytotoxicity at 24 h, 50 µM", "recorded-result": 26.6}
{"molecule": "COc1ccc(NC(=S)NC(=O)C23CC4CC(CC(C4)C2)C3)cc1 [Ij]", "experimental-endpoint": "cytotoxicity at 24 h, 50 µM", "recorded-result": 10.6}

* * *

test: MTT cytotoxicity assay, human 1321N1 astrocytoma cell line; type: cell-based; details: human, 1321N1 astrocytoma cells, final concentration of 50 μM

{"structure-as-smiles": "O=C(NC(=S)Nc1cccc(O)c1)C12CC3CC(CC(C3)C1)C2", "cytotoxicity at 24 h, 50 µM (%)": 5.67}
{"structure-as-smiles": "O=C(NC(=S)Nc1ccccc1O)C12CC3CC(CC(C3)C1)C2", "cytotoxicity at 24 h, 50 µM (%)": 10.3}
{"structure-as-smiles": "Cc1cc(Br)ccc1NC(=S)NC(=O)C12CC3CC(CC(C3)C1)C2", "cytotoxicity at 24 h, 50 µM (%)": 14.3}
{"structure-as-smiles": "O=C(NC(=S)Nc1cc([N+](=O)[O-])ccc1Cl)C12CC3CC(CC(C3)C1)C2", "cytotoxicity at 24 h, 50 µM (%)": 20.5}

* * *

molecular target: h-P2X5 (Homo sapiens, UniProt Q93086); assay: Ca2+ flux assay h-P2X5; conditions: read-out: h-P2X5 % Inhibition
Sequence (Q93086 whole entry): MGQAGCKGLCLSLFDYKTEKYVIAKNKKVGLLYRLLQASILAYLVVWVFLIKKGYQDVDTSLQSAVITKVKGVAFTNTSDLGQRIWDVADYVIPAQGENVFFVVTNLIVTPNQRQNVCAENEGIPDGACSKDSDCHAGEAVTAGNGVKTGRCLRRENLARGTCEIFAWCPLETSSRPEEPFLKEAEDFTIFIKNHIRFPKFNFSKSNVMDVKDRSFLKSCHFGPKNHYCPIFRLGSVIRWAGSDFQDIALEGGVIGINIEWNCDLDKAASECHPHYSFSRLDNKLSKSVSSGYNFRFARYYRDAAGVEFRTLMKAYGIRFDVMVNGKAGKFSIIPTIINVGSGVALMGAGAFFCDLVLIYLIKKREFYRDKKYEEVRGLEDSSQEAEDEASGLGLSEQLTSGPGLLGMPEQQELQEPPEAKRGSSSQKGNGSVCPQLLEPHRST
Recorded measurements of inhibition at 50 µM, one per entry

{"structure-as-smiles": "CN(C)CCCNC(=S)NC(=O)C12CC3CC(CC(C3)C1)C2", "output-unit": "%", "inhibition at 50 µM": 11.2}
{"structure-as-smiles": "O=C(NC(=S)Nc1cc(Br)ccc1Br)C12CC3CC(CC(C3)C1)C2", "output-unit": "%", "inhibition at 50 µM": 16.2}
{"structure-as-smiles": "O=C(NC(=S)Nc1ccc(Br)cc1)C12CC3CC(CC(C3)C1)C2", "output-unit": "%", "inhibition at 50 µM": 47.7}
{"structure-as-smiles": "O=C(NC(=S)Nc1cc(Br)c(O)c(C(F)(F)F)c1)C12CC3CC(CC(C3)C1)C2", "output-unit": "%", "inhibition at 50 µM": 20.4}
{"structure-as-smiles": "COc1cccc(NC(=S)NC(=O)C23CC4CC(CC(C4)C2)C3)c1", "output-unit": "%", "inhibition at 50 µM": 44}
{"structure-as-smiles": "O=C(NC(=S)Nc1cccc2cccnc12)C12CC3CC(CC(C3)C1)C2", "output-unit": "%", "inhibition at 50 µM": 31.5}
{"structure-as-smiles": "NS(=O)(=O)c1cccc(NC(=S)NC(=O)C23CC4CC(CC(C4)C2)C3)c1", "output-unit": "%", "inhibition at 50 µM": 42.5}
{"structure-as-smiles": "O=C(NC(=S)Nc1ccccc1O)C12CC3CC(CC(C3)C1)C2", "output-unit": "%", "inhibition at 50 µM": 40.6}
{"structure-as-smiles": "COc1ccc(NC(=S)NC(=O)C23CC4CC(CC(C4)C2)C3)cc1", "output-unit": "%", "inhibition at 50 µM": 44.5}
{"structure-as-smiles": "O=C(NC(=S)Nc1cc([N+](=O)[O-])ccc1Cl)C12CC3CC(CC(C3)C1)C2", "output-unit": "%", "inhibition at 50 µM": 32.1}
{"structure-as-smiles": "O=C(NC(=S)Nc1ccc(O)cc1)C12CC3CC(CC(C3)C1)C2", "output-unit": "%", "inhibition at 50 µM": 33.2}

Sourced from patent US20230141034A1
